The rate of inhibitory activity against NF-κB activation (%) by entry:
# Tested on: NF-κB activation
# Test summary: NF-κB activation reporter assay (pNFκB-Luc luciferase) under TNF-α stimulation
# Type: cell-based, human
# Cond: Concentration of the agent: 1 μg/mL; HepG2 or HeLa cells, TNF-α 40 ng/ml, 4 hours
A number alone suffices; assume %.

Sample records with The rate of inhibitory activity against NF-κB activation (%):
O=S(=O)(Nc1cc(Cl)ccc1O)c1cc(Cl)cc(Cl)c1; −7.1
O=C(Nc1ccc(S(=O)(=O)F)cc1)c1ccc2ccccc2c1O; 37.0
CC(=O)Oc1ccc(Cl)cc1C(=O)Nc1cc2ccccc2[nH]1; 36.7

Consider the compound `CC(=O)Oc1ccccc1C(=O)Nc1cc(C(F)(F)F)cc(C(F)(F)F)c1` and give its measured The rate of inhibitory activity against NF-κB activation (%).
90.9

Consider the compound `O=C(Nc1nnc(C(F)(F)F)s1)c1cc(Br)ccc1O` and give its measured The rate of inhibitory activity against NF-κB activation (%).
26.1

Consider the compound `O=C(Nc1nnc(C(F)(F)F)s1)c1ccccc1O` and give its measured The rate of inhibitory activity against NF-κB activation (%).
3.9

Consider the compound `O=C(c1cc(Br)ccc1O)N1CCCc2ccc(C(F)(F)F)cc21` and give its measured The rate of inhibitory activity against NF-κB activation (%).
19.9

###

# System: NF-κB activation
# Test summary: NF-κB activation reporter assay (pNFκB-Luc luciferase) under TNF-α stimulation
# Format: cell-based, human
# Cond: Homo sapiens; Concentration of the agent: 1 μg/mL; HepG2 or HeLa cells, TNF-α 40 ng/ml, 4 hours; read-out: The rate of inhibitory activity against NF-κB activation (%)
inhibition at 1 µg/mL by entry:
A number alone suffices; assume %.

O=C(Nc1cc(C(F)(F)F)cc(C(F)(F)F)c1)c1ccc(Cl)cc1O; 90.5
CC(C)(C)c1cc(NC(=O)c2cc(Br)ccc2O)cc(C(C)(C)C)c1; 70.9
O=C(Nc1cc(Cl)cc(Cl)c1)c1ccc(Cl)cc1O; -42.8
O=C(Nc1cc(C(F)(F)F)cc(C(F)(F)F)c1)c1cc([N+](=O)[O-])ccc1O; 92
O=C(Nc1nccs1)c1cc(Br)ccc1O; -23.1

Consider the compound `O=C(Nc1cc(C(F)(F)F)cc(C(F)(F)F)c1)c1cc(C(F)(F)F)ccc1O` and give its measured inhibition at 1 µg/mL.
96.4

Consider the compound `COc1ccc(C(=O)C=Cc2ccccc2OC)c(O)c1` and give its measured inhibition at 1 µg/mL.
27.8

###

# Tested on: NF-κB activation
# Test summary: NF-κB activation reporter assay (pNFκB-Luc luciferase) under TNF-α stimulation
# Format: cell-based, human
# Cond: Homo sapiens; Concentration of the agent: 1 μg/mL; HepG2 or HeLa cells, TNF-α 40 ng/ml, 4 hours; read-out: The rate of inhibitory activity against NF-κB activation (%)
Entries are sorted into classes by inhibition at 1 µg/mL as follows: low bin: < 40%; mid bin: ≥ 40% and < 80%; high bin: ≥ 80%

# example entries with known answers
O=C(Nc1ccnc(Cl)c1)c1cc(Cl)ccc1O; low bin
COc1ccc(CCC(=O)c2cc(Cl)ccc2O)cc1; low bin
C=C(c1ccc(Cl)cc1)c1cc(Cl)ccc1O; low bin
O=C(Nc1ccc(Cl)c(C(F)(F)F)c1)c1cc(Br)ccc1O; high bin
O=C(Nc1cc(F)cc(F)c1)c1cc(Br)ccc1O; high bin

Class label required: `Oc1ccc(Br)cc1CNc1cc(Cl)cc(Cl)c1`
low bin

Class label required: `O=C(Nc1ccc(Cl)cc1)c1cc2c(cc1O)[nH]c1ccccc12`
mid bin

Class label required: `CN(C(=O)c1cc(Cl)ccc1O)c1cc(C(F)(F)F)cc(C(F)(F)F)c1`
low bin

Entry source: patent US8097759B2
